I'd be grateful if you could share measured pIC50 for these entries.
- TARGET_OF_ASSAY: SARS-CoV-2 PLpro (Severe acute respiratory syndrome coronavirus 2, UniProt P0DTD1)
- ASSAY_DETAILS: biochemical
- Type: biochemical
- TEST_SETTINGS: read-out: IC50 against SARS-CoV-2-PLpro
Numbers only, as −log10 of the molar value.

COMPOUND: O=C(Nc1ccccc1Cl)c1sc(=S)n2c1[nH]c(=O)c1ccccc12 [Compound F0213]
TARGET_OF_ASSAY: SARS-CoV-2 PLpro (Severe acute respiratory syndrome coronavirus 2, UniProt P0DTD1)
pIC50: 5.13

# ---- query compound ----
Any idea what its pIC50 is? The compound is Cc1cccc(NC(=O)c2sc(=S)n3c2[nH]c(=O)c2cc4c(cc23)OCO4)c1 [Compound F0393]
4.80
